B1: glmS ribozyme (parent)
chain: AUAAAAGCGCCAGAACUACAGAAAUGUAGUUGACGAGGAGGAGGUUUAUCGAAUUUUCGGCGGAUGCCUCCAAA

variants of: B1; assay: self-cleavage kobs at 2500 uM GlcN6P; higher = faster cleavage; RNA array; settings: with glucosamine-6-phosphate
Variants at the floor of the assay were thinned out.
Test readout: self-cleavage kobs at 2500 uM GlcN6P (s⁻¹)

# Mutant, Test readout, Unit annotation, Value relation sign, Meas value
measured = [
    ("C10U C11G A14G G43C A53C", "self-cleavage kobs at 2500 uM GlcN6P", "s⁻¹", "<", "1e-05"),
    ("G32C A42U A53G U57A A64G", "self-cleavage kobs at 2500 uM GlcN6P", "s⁻¹", "<", "1e-05"),
    ("G9C G38C G63U", "self-cleavage kobs at 2500 uM GlcN6P", "s⁻¹", "<", "1e-05"),
    ("C10G G35U U46G C68A", "self-cleavage kobs at 2500 uM GlcN6P", "s⁻¹", "<", "1e-05"),
    ("U31A G41U", "self-cleavage kobs at 2500 uM GlcN6P", "s⁻¹", "=", 0.00034),
    ("G9U A48U C67G", "self-cleavage kobs at 2500 uM GlcN6P", "s⁻¹", "<", "1e-05"),
    ("C10G G32U C34U G40U G41C", "self-cleavage kobs at 2500 uM GlcN6P", "s⁻¹", "<", "1e-05"),
    ("G32C G35U G41C C58A A64G", "self-cleavage kobs at 2500 uM GlcN6P", "s⁻¹", "<", "1e-05"),
    ("U54A C71A", "self-cleavage kobs at 2500 uM GlcN6P", "s⁻¹", "=", 0.00847),
    ("A42C U65C C71G", "self-cleavage kobs at 2500 uM GlcN6P", "s⁻¹", "<", "1e-05"),
    ("U45G U56A C71U", "self-cleavage kobs at 2500 uM GlcN6P", "s⁻¹", "=", 0.000974),
    ("G13U A42G U45A", "self-cleavage kobs at 2500 uM GlcN6P", "s⁻¹", "=", 0.000951),
    ("G32A U69G C70G C71U", "self-cleavage kobs at 2500 uM GlcN6P", "s⁻¹", "=", 0.00186),
    ("A52C", "self-cleavage kobs at 2500 uM GlcN6P", "s⁻¹", "=", "2.17e-05"),
    ("A14C A53U", "self-cleavage kobs at 2500 uM GlcN6P", "s⁻¹", "=", 0.00214),
    ("A6U G41A G44C C67G C70G", "self-cleavage kobs at 2500 uM GlcN6P", "s⁻¹", "<", "1e-05"),
    ("A6G G41C A42C", "self-cleavage kobs at 2500 uM GlcN6P", "s⁻¹", "<", "1e-05"),
    ("U54C C71A", "self-cleavage kobs at 2500 uM GlcN6P", "s⁻¹", "=", 0.00192),
    ("A12U C34U C71U", "self-cleavage kobs at 2500 uM GlcN6P", "s⁻¹", "<", "1e-05"),
    ("C34A A42G", "self-cleavage kobs at 2500 uM GlcN6P", "s⁻¹", "<", "1e-05"),
    ("A14U G29U", "self-cleavage kobs at 2500 uM GlcN6P", "s⁻¹", "=", 0.000222),
    ("G13C", "self-cleavage kobs at 2500 uM GlcN6P", "s⁻¹", "=", "6.98e-05"),
    ("A15U U56C U57G G63A C70G", "self-cleavage kobs at 2500 uM GlcN6P", "s⁻¹", "=", 0.000104),
    ("G44C U54G", "self-cleavage kobs at 2500 uM GlcN6P", "s⁻¹", "=", "7.38e-05"),
    ("A14C G29A A33U", "self-cleavage kobs at 2500 uM GlcN6P", "s⁻¹", "<", "1e-05"),
    ("G9U U31A", "self-cleavage kobs at 2500 uM GlcN6P", "s⁻¹", "<", "1e-05"),
    ("C11A G35A G63U A64C", "self-cleavage kobs at 2500 uM GlcN6P", "s⁻¹", "<", "1e-05"),
    ("A6G A36G G44U C61U", "self-cleavage kobs at 2500 uM GlcN6P", "s⁻¹", "<", "1e-05"),
    ("G29A G41A", "self-cleavage kobs at 2500 uM GlcN6P", "s⁻¹", "=", "6.8e-05"),
    ("C16G U56A", "self-cleavage kobs at 2500 uM GlcN6P", "s⁻¹", "=", 0.00135),
    ("C8G C61U C68U", "self-cleavage kobs at 2500 uM GlcN6P", "s⁻¹", "<", "1e-05"),
    ("A12G G13U G60U", "self-cleavage kobs at 2500 uM GlcN6P", "s⁻¹", "<", "1e-05"),
    ("C34U U49G A52U", "self-cleavage kobs at 2500 uM GlcN6P", "s⁻¹", "<", "1e-05"),
]

meta.source: the supplement of paper PMC7125110
